Molecular target: KRAS G13D (Homo sapiens (Human), UniProt P01116+P62937, G13D)
Sequence (P01116-2 other isoform, or with tags, fused parts or gaps G13D): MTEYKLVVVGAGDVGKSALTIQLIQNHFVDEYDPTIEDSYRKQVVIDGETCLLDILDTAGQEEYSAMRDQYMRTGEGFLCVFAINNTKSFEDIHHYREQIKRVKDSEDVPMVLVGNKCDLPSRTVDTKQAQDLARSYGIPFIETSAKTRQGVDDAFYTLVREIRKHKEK
Sequence (P62937 whole entry): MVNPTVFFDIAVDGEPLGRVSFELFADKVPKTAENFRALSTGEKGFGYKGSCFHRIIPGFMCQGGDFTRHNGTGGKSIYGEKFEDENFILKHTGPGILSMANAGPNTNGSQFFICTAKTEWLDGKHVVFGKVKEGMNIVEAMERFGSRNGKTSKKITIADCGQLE
Test: Ras-Raf (BRAF RBD) disruption / FRET / MOA assay, KRAS G13D
Type: biochemical
Conditions: read-out: IC50* KRAS G13D FRET data
pIC50: −log10 of the molar value.
endpoint: pIC50

>>> observed_value("C=CC(=O)N1CC[C@H](C(=O)N(C)[C@H](C(=O)N[C@H]2Cc3cc(C)cc(c3)-c3ccc4c(c3)c(c(-c3cccnc3[C@H](C)OC)n4CC)CC(C)(C)COC(=O)[C@@H]3CCCN(N3)C2=O)C(C)C)C1 (atropisomer, axis not shown)")
"< 5.00"
>>> observed_value("CCn1c(-c2cccnc2[C@H](C)OC)c2c3cc(ccc31)-c1csc(n1)C[C@H](NC(=O)CCO[C@H]1CCN(C(=O)C#CC(C)(C)N3CCC3)C1)C(=O)N1CCC[C@H](N1)C(=O)OCC(C)(C)C2 (atropisomer, axis not shown)")
"5.00 to 6.00"
>>> observed_value("CCn1c(-c2cccnc2[C@H](C)OC)c2c3cc(ccc31)-c1cccc(c1)C[C@H](NC(=O)[C@H](C(C)C)N(C)C(=O)[C@H]1CCN(C(=O)/C=C/C(F)F)C1)C(=O)N1CCC[C@H](N1)C(=O)OCC(C)(C)C2 (atropisomer, axis not shown)")
"5.00 to 6.00"
>>> observed_value("CCn1c(-c2cccnc2COC)c2c3cc(ccc31)-c1cc(O)cc(c1)C[C@H](NC(=O)[C@H](C(C)C)N(C)C(=O)[C@H]1CCC(C(=O)/C=C\\CN(C)C)C1)C(=O)N1CCC[C@H](N1)C(=O)OCC(C)(C)C2 (some centres unmarked) [Example A161]")
"5.00 to 6.00"
>>> observed_value("CCn1c(-c2cccnc2[C@H](C)OC)c2c3cc(ccc31)-c1cc(cc(C(F)F)c1)C[C@H](NC(=O)C(COC1CN(C(=O)C#CC(C)(C)N(C)C)C1)C(C)C)C(=O)N1CCC[C@H](N1)C(=O)OCC(C)(C)C2 (mixture of isomers)")
"< 5.00"
>>> observed_value("CO[C@@H](C)c1ncccc1-c1c2c3cc(ccc3n1CC(F)(F)F)-c1csc(n1)C[C@H](NC(=O)[C@H](C(C)C)N(C)C(=O)N1C[C@@H]3OCCN(C(=O)/C=C/C(F)F)[C@@H]3C1)C(=O)N1CCC[C@H](N1)C(=O)OCC(C)(C)C2 (atropisomer, axis not shown)")
"5.00 to 6.00"
>>> observed_value("C=CC(=O)N1CC[C@]2(CCN(C(=O)N(C)[C@H](C(=O)N[C@H]3Cc4nc(cs4)-c4ccc5c(c4)c(c(-c4cccnc4[C@H](C)OC)n5CC)CC(C)(C)COC(=O)[C@@H]4CCCN(N4)C3=O)C(C)C)C2)C1 (atropisomer, axis not shown)")
"6.00 to 7.00"
>>> observed_value("CCn1c(-c2cccnc2[C@H](C)OC)c2c3cc(ccc31)-c1cccc(c1)C[C@H](NC(=O)[C@@H](COC1CN(C(=O)C#CC(C)(C)N(C)CCO)C1)C(C)C)C(=O)N1CCC[C@H](N1)C(=O)OCC(C)(C)C2 (atropisomer, axis not shown)")
"< 5.00"

====

Target: KRAS G12D (Homo sapiens (Human), UniProt P01116+P62937, G12D)
Sequence (P01116-2 other isoform, or with tags, fused parts or gaps G12D): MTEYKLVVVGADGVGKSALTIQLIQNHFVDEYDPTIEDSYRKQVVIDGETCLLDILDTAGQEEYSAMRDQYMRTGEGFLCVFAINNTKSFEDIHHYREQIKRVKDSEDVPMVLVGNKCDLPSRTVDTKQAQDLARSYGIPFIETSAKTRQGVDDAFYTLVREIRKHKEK
Sequence (P62937 whole entry): as the sequence (P62937 whole entry) above
Assay: Ras-Raf (BRAF RBD) disruption / FRET / MOA assay, KRAS G12D
Format: biochemical
Details: Ras-Raf disruption/FRET/MOA assay; class symbols; read-out: KRAS G12D FRET data IC50
endpoint: IC50

>>> observed_value("CCn1c(-c2cccnc2[C@H](C)OC)c2c3cc(ccc31)-c1cccc(c1)C[C@H](NC(=O)[C@H](C(C)C)N(C)C(=O)[C@H]1CCN(C(=O)C#CCN(C)C)C1)C(=O)N1CCC[C@H](N1)C(=O)OCC(C)(C)C2 (atropisomer, axis not shown)")
"1 to 10 µM"
>>> observed_value("C=CC(=O)N1CC[C@H](C(=O)N(C)[C@H](C(=O)N[C@H]2Cc3cc(O)cc(c3)-c3ccc4c(c3)c(c(-c3ccc(OCC(=O)O)cc3)n4CC)CC(C)(C)COC(=O)[C@@H]3CCCN(N3)C2=O)C(C)C)C1")
"> 10 µM"
>>> observed_value("CO[C@@H](C)c1ncccc1-c1c2c3cc(ccc3n1CC(F)(F)F)-c1csc(n1)C[C@H](NC(=O)[C@H](C(C)C)N(C)C(=O)N1C[C@@H]3OCCN(C(=O)/C=C/C(F)F)[C@@H]3C1)C(=O)N1CCC[C@H](N1)C(=O)OCC(C)(C)C2 (atropisomer, axis not shown)")
"1 to 10 µM"
>>> observed_value("C=CC(=O)C1C[C@@H](C(=O)N(C)[C@H](C(=O)N[C@H]2Cc3cc(O)cc(c3)-c3ccc4c(c3)c(c(-c3ccc5c(c3)CN(C)C5)n4CC)CC(C)(C)COC(=O)[C@@H]3CCCN(N3)C2=O)C(C)C)CN1 (some centres unmarked)")
"> 10 µM"
>>> observed_value("C=CC(=O)N1CC[C@H](C(=O)N(C)[C@H](C(=O)N[C@H]2Cc3cccc(c3)-c3ccc4c(c3)c(c(-c3cccnc3[C@H](C)OC)n4CC)CC(C)(C)COC(=O)[C@@H]3CCCN(N3)C2=O)C(C)(C)F)C1 (atropisomer, axis not shown)")
"> 10 µM"
>>> observed_value("CO[C@@H](C)c1ncc(N2CCN(C)CC2)cc1-c1c2c3cc(ccc3n1CC(F)(F)F)-c1cccc(c1)C[C@H](NC(=O)[C@H](C(C)C)N(C)C(=O)C1(F)CCN(C(=O)C#CC(C)(C)N(C)C)CC1)C(=O)N1CCC[C@H](N1)C(=O)OCC(C)(C)C2 (atropisomer, axis not shown)")
"0.1 to 1 µM"
>>> observed_value("CCn1c(-c2cccnc2COC)c2c3cc(ccc31)-c1cc(O)cc(c1)C[C@H](NC(=O)[C@H](C(C)C)N(C)C(=O)[C@H]1CCN(C(=O)C#CCN3[C@@H](C)COC[C@@H]3C)C1)C(=O)N1CCC[C@H](N1)C(=O)OCC(C)(C)C2")
"> 10 µM"
>>> observed_value("CCn1c(-c2cccnc2[C@H](C)OC)c2c3cc(ccc31)-c1csc(n1)C[C@H](NC(=O)CCO[C@@H]1CCN(C(=O)C#CC(C)(C)N3CCC3)C1)C(=O)N1CCC[C@H](N1)C(=O)OCC(C)(C)C2 (atropisomer, axis not shown)")
"1 to 10 µM"
